# tested target: T1, human CCR8 (human, UniProt P51685 1-355)
# T1 construct: Native CCR8 on human PBMC (CCR8+ CD3+ or CCR8+ CD4+ lymphocytes); also called chemokine (C-C motif) receptor 8
# T1 sequence (P51685 whole entry): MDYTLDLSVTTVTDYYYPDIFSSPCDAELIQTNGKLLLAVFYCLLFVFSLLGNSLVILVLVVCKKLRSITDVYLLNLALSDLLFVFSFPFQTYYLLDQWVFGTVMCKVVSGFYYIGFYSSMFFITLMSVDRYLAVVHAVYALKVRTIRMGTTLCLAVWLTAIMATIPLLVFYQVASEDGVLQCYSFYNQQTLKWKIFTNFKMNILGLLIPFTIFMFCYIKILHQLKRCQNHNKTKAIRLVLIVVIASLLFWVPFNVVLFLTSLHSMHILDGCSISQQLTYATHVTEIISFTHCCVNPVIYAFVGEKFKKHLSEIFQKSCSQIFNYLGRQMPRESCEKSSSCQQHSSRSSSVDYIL
# test name: flow blocking, PBMC CCR8+CD4+; competitor PE-AB3
value type: % Positive cells

Return reported % Positive cells; argument: AB12 (antibody, V domains shown, Hybridoma monoclonal; also called antibody 12; clone 12) VH: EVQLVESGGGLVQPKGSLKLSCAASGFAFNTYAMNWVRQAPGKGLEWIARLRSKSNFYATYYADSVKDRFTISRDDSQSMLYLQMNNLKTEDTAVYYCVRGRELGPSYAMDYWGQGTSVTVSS VL: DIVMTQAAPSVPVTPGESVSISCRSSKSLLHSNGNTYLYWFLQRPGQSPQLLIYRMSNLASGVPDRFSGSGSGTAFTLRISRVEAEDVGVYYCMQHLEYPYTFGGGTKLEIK
2.3%

Return reported % Positive cells; argument: AB10 (antibody, V domains shown, Hybridoma monoclonal; also called antibody 10; clone 10) VH: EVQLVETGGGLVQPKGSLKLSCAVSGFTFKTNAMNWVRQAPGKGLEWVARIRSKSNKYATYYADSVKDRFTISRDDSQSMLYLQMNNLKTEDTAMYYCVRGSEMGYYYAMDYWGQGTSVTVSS VL: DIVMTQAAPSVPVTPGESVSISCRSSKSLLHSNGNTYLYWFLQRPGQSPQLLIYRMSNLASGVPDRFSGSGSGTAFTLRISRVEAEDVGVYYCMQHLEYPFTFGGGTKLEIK
2.58%

Return reported % Positive cells; argument: AB15 (antibody, V domains shown, Hybridoma monoclonal; Same VH/VL entries as AB14; also called antibody 15; clone 15) VH: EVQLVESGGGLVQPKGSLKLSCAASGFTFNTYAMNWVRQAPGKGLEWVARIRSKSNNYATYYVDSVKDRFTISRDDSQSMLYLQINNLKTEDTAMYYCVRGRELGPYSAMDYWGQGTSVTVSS VL: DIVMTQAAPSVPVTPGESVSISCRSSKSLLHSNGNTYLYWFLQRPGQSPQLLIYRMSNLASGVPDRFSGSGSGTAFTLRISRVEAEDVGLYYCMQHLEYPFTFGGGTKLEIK
2.28%

Return reported % Positive cells; argument: AB3 (antibody, V domains shown, Hybridoma monoclonal; also called antibody 3; clone 3) VH: QVQLKESGPGLVKPSETLSLTCTVSGFSLTSYHISWVRQPPGKGLEWMGVIWGDGKTTYNSALKSRLSISRDTSKSQVFLKMNSLKTEDTATYYCARGGDSGFAYWGQGTLVTVSS VL: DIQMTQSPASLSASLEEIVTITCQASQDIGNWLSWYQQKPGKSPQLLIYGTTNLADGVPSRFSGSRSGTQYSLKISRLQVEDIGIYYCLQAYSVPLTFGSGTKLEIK
0%

Reference for the values: patent US20240360228A1
